- Test system: Amaranthus retoflexus (AMARE)
- test-protocol: B4 Pre-Emergence Efficacy Test 2
- Assay type: in vivo
- reported-conditions: 250 g/ha, after 13 days
measured-attribute: percentage damage caused to the plant, five point scale, AMARE

[
  {
    "compound": "Cc1nn(C)c(=O)c(-c2c(F)ccc(Cl)c2CCc2ccc3c(c2)CC(=O)N3)c1O",
    "experimental-result": "4 (4=60-79%)"
  },
  {
    "compound": "Cc1nn(C)c(=O)c(-c2c(F)ccc(Cl)c2CCc2ccc3sccc3c2)c1O",
    "experimental-result": "5 (5=80-100%)"
  },
  {
    "compound": "Cc1nn(C)c(=O)c(-c2c(F)ccc(Cl)c2CCc2cccc3ccccc23)c1O",
    "experimental-result": "2 (2=20-39%)"
  },
  {
    "compound": "Cc1nn(C)c(=O)c(-c2c(F)ccc(Cl)c2CCc2cnc3c(ccn3C)c2)c1O",
    "experimental-result": "5 (5=80-100%)"
  },
  {
    "compound": "Cc1nn(C)c(=O)c(-c2c(F)ccc(Cl)c2CCc2ccc3c(C)noc3c2)c1O",
    "experimental-result": "5 (5=80-100%)"
  },
  {
    "compound": "Cc1nn(C)c(=O)c(-c2c(F)ccc(Cl)c2CCc2ccc3c(c2)OC(C)(C)C3)c1O",
    "experimental-result": "5 (5=80-100%)"
  },
  {
    "compound": "Cc1nn(C)c(=O)c(-c2c(F)ccc(Cl)c2/C=C/c2cn3ccnc3cn2)c1O",
    "experimental-result": "5 (5=80-100%)"
  },
  {
    "compound": "Cc1nn(C)c(=O)c(-c2c(F)ccc(Cl)c2CCc2ccc3scnc3c2)c1O",
    "experimental-result": "5 (5=80-100%)"
  },
  {
    "compound": "Cc1nn(C)c(=O)c(-c2c(F)ccc(Cl)c2CCc2nc3ccccc3o2)c1O",
    "experimental-result": "5 (5=80-100%)"
  },
  {
    "compound": "Cc1nn(C)c(=O)c(-c2c(F)ccc(Cl)c2CCc2ccc3c(c2)OC(C)(C)O3)c1O",
    "experimental-result": "4 (4=60-79%)"
  },
  {
    "compound": "Cc1nn(C)c(=O)c(-c2c(F)ccc(Cl)c2CCc2ccc3occc3c2)c1O",
    "experimental-result": "3 (3=40-59%)"
  },
  {
    "compound": "Cc1nn(C)c(=O)c(-c2c(F)ccc(Cl)c2CCc2ccc3ccn(C)c3c2)c1O",
    "experimental-result": "3 (3=40-59%)"
  },
  {
    "compound": "Cc1nn(C)c(=O)c(-c2c(F)ccc(Cl)c2CCc2ccc3ccccc3c2)c1O",
    "experimental-result": "4 (4=60-79%)"
  },
  {
    "compound": "Cc1nn(C)c(=O)c(-c2c(F)ccc(Cl)c2CCc2ccc3c(cnn3C)c2)c1O",
    "experimental-result": "4 (4=60-79%)"
  },
  {
    "compound": "Cc1nn(C)c(=O)c(-c2c(F)ccc(Cl)c2CCc2nn(C)c3ccccc23)c1O",
    "experimental-result": "3 (3=40-59%)"
  },
  {
    "compound": "Cc1nn(C)c(=O)c(-c2c(F)ccc(Cl)c2CCc2ccc3c(ccn3C)c2)c1O",
    "experimental-result": "3 (3=40-59%)"
  },
  {
    "compound": "Cc1nn(C)c(=O)c(-c2c(F)ccc(Cl)c2CCc2ccc3cnn(C)c3c2)c1O",
    "experimental-result": "5 (5=80-100%)"
  },
  {
    "compound": "Cc1nc2ccc(CCc3c(Cl)ccc(F)c3-c3c(O)c(C)nn(C)c3=O)cc2o1",
    "experimental-result": "5 (5=80-100%)"
  },
  {
    "compound": "Cc1nn(C)c(=O)c(-c2c(F)ccc(Cl)c2CCc2ccc3ccsc3c2)c1O",
    "experimental-result": "5 (5=80-100%)"
  },
  {
    "compound": "Cc1nn(C)c(=O)c(-c2c(F)ccc(Cl)c2CCc2ccc3oc(=O)[nH]c3c2)c1O",
    "experimental-result": "5 (5=80-100%)"
  },
  {
    "compound": "Cc1nn(C)c(=O)c(-c2c(F)ccc(Cl)c2CCc2ccc3c(c2)OC(F)(F)O3)c1O",
    "experimental-result": "5 (5=80-100%)"
  },
  {
    "compound": "Cc1nn(C)c(=O)c(-c2c(F)ccc(Cl)c2CCc2ccc3ncsc3c2)c1O",
    "experimental-result": "5 (5=80-100%)"
  }
]

All figures here come from patent US12540128B2.
